# TARGET OR TEST SYSTEM: HDM2 (Homo sapiens)
# Construct: Thioredoxin (N); made in house; host or cells: E. coli strain BL21(DE3)Rosetta
# Sequence (Q00987 17-125): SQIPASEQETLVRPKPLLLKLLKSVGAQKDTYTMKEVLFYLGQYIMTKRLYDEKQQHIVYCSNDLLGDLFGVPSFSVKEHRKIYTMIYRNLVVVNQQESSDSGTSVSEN
# EXPERIMENT SUMMARY: HDM2 FRET assay (inhibition of binding of FITC labeled p53-pocket peptide to HDM2)
# APPLIED CONDITIONS: Table 17.2; read-out: FRET IC50
# Source text: Methods: An HDM2 FRET assay was developed to assess the compounds' inhibitory activity towards binding of p53 protein. […] Protein was purified using Ni-affinity chromatography, followed by size exclusion chromatography using Superdex 75 26/60 column. […] The HDM2 assay buffer contained 1x Phosphate Buffered Saline (Invitrogen, Cat#14190), 0.01% BSA (Jackson ImmunoResearch, Cat# 001-000-162), 0.01% Tween-20. […]
IC50 by entry:
REPORTED PROPERTY: IC50 (nM)

>>> measured_value("CC(=O)N1CCN(c2nc3nc(-c4noc(=O)[nH]4)nc(N[C@H](C)C4CCC4)c3n2C[C@H]2CC[C@H](C)CC2)[C@H](C)C1")
2.61
>>> measured_value("C[C@@H](Nc1nc(C(N)=O)nc2nc(N3CCN(S(C)(=O)=O)C[C@H]3c3ccccc3)n(C[C@H]3CC[C@H](C)CC3)c12)C1CCC1")
4.6
>>> measured_value("C[C@@H](Nc1nc(-c2noc(=O)[nH]2)nc2nc(N3CCN(S(C)(=O)=O)C[C@H]3c3ccccc3)n(C[C@H]3CC[C@H](C)CC3)c12)C1CCC1")
1.86
>>> measured_value("C[C@@H]1CN(C(=O)CO)CCN1c1nc2nc(-c3noc(=O)[nH]3)nc(N[C@H](C)C3CCC3)c2n1C[C@H]1CC[C@H](C)CC1")
3.79
>>> measured_value("CC(=O)N1CCN(c2nc3nc(C(N)=O)nc(N[C@H](C)C4CCC4)c3n2C[C@H]2CC[C@H](C)CC2)[C@H](c2ccccc2)C1")
6.33
>>> measured_value("C[C@@H]1CN(C(=O)C2CC2)CCN1c1nc2nc(-c3noc(=O)[nH]3)nc(N[C@H](C)C3CCC3)c2n1C[C@H]1CC[C@H](C)CC1")
1.22
>>> measured_value("CC(=O)N1CCN(c2nc3nc(-c4noc(=O)[nH]4)nc(N[C@H](C)C4CCC4)c3n2C[C@H]2CC[C@H](C)CC2)[C@H](c2ccccc2)C1")
0.215
>>> measured_value("C[C@@H]1CNCCN1c1nc2nc(-c3noc(=O)[nH]3)nc(N[C@H](C)C3CCC3)c2n1C[C@H]1CC[C@H](C)CC1")
15.5
>>> measured_value("C[C@@H]1CN(C(=O)C(C)(C)C)CCN1c1nc2nc(-c3noc(=O)[nH]3)nc(N[C@H](C)C3CCC3)c2n1C[C@H]1CC[C@H](C)CC1")
4.3
>>> measured_value("C[C@@H]1CN(C(=O)C2CC2)[C@@H](C)CN1c1nc2nc(-c3noc(=O)[nH]3)nc(N[C@H](C)C3CCC3)c2n1C[C@H]1CC[C@H](C)CC1")
4.88
>>> measured_value("C[C@@H]1CN(S(C)(=O)=O)CCN1c1nc2nc(-c3noc(=O)[nH]3)nc(N[C@H](C)C3CCC3)c2n1C[C@H]1CC[C@H](C)CC1")
4.93
>>> measured_value("C[C@@H]1CN[C@@H](C)CN1c1nc2nc(-c3noc(=O)[nH]3)nc(N[C@H](C)C3CCC3)c2n1C[C@H]1CC[C@H](C)CC1")
20.1
>>> measured_value("CC(=O)N1C[C@@H](C)N(c2nc3nc(-c4noc(=O)[nH]4)nc(N[C@H](C)C4CCC4)c3n2C[C@H]2CC[C@H](C)CC2)C[C@@H]1C")
4.35
>>> measured_value("CC(C)S(=O)(=O)N1CCN(c2nc3nc(-c4noc(=O)[nH]4)nc(N[C@H](C)C4CCC4)c3n2C[C@H]2CC[C@H](C)CC2)[C@H](C)C1")
10.1
>>> measured_value("C[C@@H]1CN(C(=O)OC(C)(C)C)[C@@H](C)CN1c1nc2nc(-c3noc(=O)[nH]3)nc(N[C@H](C)C3CCC3)c2n1C[C@H]1CC[C@H](C)CC1")
14.7

Source of measurements: patent EP2951180B1
